test: compound binding in COS7 lysate, probe aLAP1, primary screen, cell lysate, small-molecule microarray (AID 1124); conditions: probe aLAP1, fluorescence, higher = more signal;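 also: lysate comes from COS7 cells expressing LAP1 and is applied at 0.3 µg/mL; score merges spot fluorescence near 667 nm with signal-to-noise over triplicate slides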
Entries and their measured composite z-score follow.

For orientation, consider the following solved cases.
1. CCOC(=O)C1=CC[C@@H](c2ccccc2C(F)(F)F)N(S(=O)(=O)c2ccc(C)cc2)[C@H]1c1ccc(C#N)cc1 : 1.25
2. CN(C)CCCNC(=O)[C@@]1(C)c2ccccc2C(=O)N(Cc2ccccc2)[C@H]1c1ccc(CO)cc1 : -0.39
3. CC(C)N1C(=O)c2ccccc2[C@@H](C(=O)NC2CC2)[C@@H]1c1ccc(CO)cc1 : 0.37

Problem: Output composite z-score of COC(=O)[C@@]1(Cc2ccc(OC)cc2)[C@H]2c3cc(C(=O)N4CCCC4)n(Cc4c(-c5ccccc5)noc4C)c3C[C@H]2CN1C(=O)c1ccccc1
Solution: 0.214

Problem: Please give measured composite z-score of the following entry: CCCCC(=C=CC[C@@H](O)c1ccccc1OCCO)C[C@@H](O)COCc1ccccc1
Solution: 0.207

Problem: Name the recorded composite z-score of the item O=C1OCC=C[C@H]2OC34C=CCN(Cn5nnc6ccccc65)C(=O)[C@H]3N(CCCO)C(=O)[C@@H]4[C@@H]12 (some centres undefined) in your answer.
Solution: -0.124

Problem: Answer with reported composite z-score of Cc1ccc(S[C@]2(C(=O)O)CC(=O)N(Cc3cc(C(F)(F)F)cc(C(F)(F)F)c3)[C@@H]2c2ccc(CO)cc2)cc1
Solution: 0.549

Problem: Given the compound O=C1OCCC/C=C\[C@H]2OC34C=CCN(CCN5CCOCC5)C(=O)[C@H]3N(CCCCCCO)C(=O)[C@@H]4C12 (some centres undefined) , write its reported composite z-score.
Solution: 1.57

Problem: Fill in reported composite z-score for this entry: O=C(NCc1ccccc1)[C@@H]1c2ccccc2C(=O)N(Cc2ccccc2C(F)(F)F)[C@H]1c1ccc(CO)cc1
Solution: 2.63
